Test system: HEK293 cells overexpressing APOL1 G2
Test: APOL1 G2 HEK293 cell rescue assay (reversal of cell death caused by overexpression of APOL1)
Assay type: cell-based
Details: Homo sapiens, HEK293, HEK293 overexpressing APOL1 G2; geometric mean of at least 2 assay runs; † = single assay run
Procedure: Unless otherwise specified, EC50 values are reported as the geometric mean of at least 2 assay runs on separate days. Each run represents the average of a technical replicate, where each compound was assayed twice in the same plate. A superscript t symbol indicates a value from the average of a technical replicate from a single assay run, where each compound was assayed twice in the same plate. […]
pEC50: −log10 of the molar value.
Kind request: treat 7 as inclusive, so pEC50 at 7 or higher is t, anything lower is f.

Exam item: decide whether the reported pEC50 for Cc1cc(OCCN2CCC3(CC2)C(=O)Nc2ccc(Cl)cc23)cc(C)c1S(C)(=O)=O is at least 7.
t

Exam item: decide whether the reported pEC50 for C[C@]1(O)C[C@@H](n2c(=O)cc(C(F)(F)F)c3cc(OCCN4CCC5(CC4)C(=O)Nc4ccc(Cl)cc45)cnc32)C1 is at least 7.
t

Exam item: decide whether the reported pEC50 for O=C(NC1CCS(=O)(=O)CC1)c1ccc(OCCN2CCC3(CC2)C(=O)Nc2ccc(Cl)cc23)cc1F is at least 7.
t

Exam item: decide whether the reported pEC50 for CC(COc1ccc2c(c1)CCC(=O)N2C)N1CCC2(CC1)C(=O)Nc1ccc(C#N)cc12 (stereo not shown) is at least 7.
f

Exam item: decide whether the reported pEC50 for [2H]C([2H])(Oc1cnc2c(c1)CCC(=O)N2[C@H]1C[C@@](C)(O)C1)C([2H])([2H])N1CCC2(CC1)C(=O)Nc1ccc(Cl)cc12 is at least 7.
t

Exam item: decide whether the reported pEC50 for CN1C(=O)C2(CCN(CCOc3ccc4c(c3)CCN(S(C)(=O)=O)C4)CC2)c2ccccc21 is at least 7.
f

====

// EC50 lookup, one value per entry
Test system: Trypanosoma brucei Lister 427 VSG221 with APOL1 G1 recombinant protein
Test: APOL1 G1 trypanosome cell rescue assay (Example B5)
Format: cell-based
Conditions: read-out: APOL1 G1 Trypanosome Rescue EC50; Trypanosoma brucei Lister 427 VSG221 with APOL1 G1 recombinant protein, 20 hours, CellTiter-Glo; geometric mean of at least 2 assay runs; † = single assay run
Numeric only. Scale: µM

# compound, EC50 / µM
rows = [
    ("CC(c1c(F)cc(OCCN2CCC3(CC2)C(=O)Nc2ccc(C#N)cc23)cc1F)S(C)(=O)=O (single isomer, unassigned) [Compound 139]", 0.537),
    ("CC(O)c1ncc(OCCN2CCC3(CC2)C(=O)Nc2ccc(C#N)cc23)cc1C(F)(F)F (single isomer, unassigned) [Compound 376]", 0.115),
    ("CC(c1ccc(OCCN2CCC3(CC2)C(=O)Nc2ccc(C#N)cc23)cc1)S(C)(=O)=O (single isomer, unassigned) [Compound 135]", 1.2),
    ("CS(=O)(=O)c1ccc(OCCN2CCC3(CC2)C(=O)Nc2ccc(Cl)cc23)cc1C(F)CF (single isomer, unassigned) [Compound 218]", 0.108),
    ("O=C1NCC2c3ccc(OCCN4CCC5(CC4)C(=O)Nc4ccc(Cl)cc45)cc3CCN12 (single isomer, unassigned) [Compound 116]", 0.209),
]

Param item = CS(=O)(=O)C1(c2ccc(OCCN3CCC4(CC3)C(=O)Nc3ccc(C(F)F)cc34)cc2)CC(O)C1 (single isomer, unassigned) [Compound 281] ; retrieve measured EC50.
0.101

Param item = O=C1Nc2ccc(Cl)cc2C12CCN(CCOc1ccc(C3CCCS3(=O)=O)cc1)CC2 (single isomer, unassigned) [Compound 177] ; retrieve measured EC50.
0.314

Param item = CC(O)c1ncc(OCCN2CCC3(CC2)C(=O)Nc2ccc(C#N)cc23)cc1C(F)(F)F (single isomer, unassigned) [Compound 377] ; retrieve measured EC50.
0.271

Param item = CS(=O)(=O)c1ccc(OCCN2CCC3(CC2)C(=O)Nc2ccc(Cl)cc23)cc1C(F)CF (single isomer, unassigned) [Compound 219] ; retrieve measured EC50.
0.039

Param item = CS(=O)(=O)C1(c2ccc(OCCN3CCC4(CC3)C(=O)Nc3ccc(C(F)F)cc34)cc2)CC(O)C1 (single isomer, unassigned) [Compound 282] ; retrieve measured EC50.
0.23

Param item = CN=S(C)(=O)c1ccc(OCCN2CCC3(CC2)C(=O)Nc2ccc(Cl)cc23)cc1 (single isomer, unassigned) [Compound 149] ; retrieve measured EC50.
0.174

Param item = CC1(O)CC(CN2C(=O)CCc3cc(OCCN4CCC5(CC4)C(=O)Nc4ccc(Cl)cc45)cnc32)C1 (single isomer, unassigned) [Compound 322] ; retrieve measured EC50.
0.0349
